# testedTarget: UniProtKB P10632
# Sequence (P10632 whole entry): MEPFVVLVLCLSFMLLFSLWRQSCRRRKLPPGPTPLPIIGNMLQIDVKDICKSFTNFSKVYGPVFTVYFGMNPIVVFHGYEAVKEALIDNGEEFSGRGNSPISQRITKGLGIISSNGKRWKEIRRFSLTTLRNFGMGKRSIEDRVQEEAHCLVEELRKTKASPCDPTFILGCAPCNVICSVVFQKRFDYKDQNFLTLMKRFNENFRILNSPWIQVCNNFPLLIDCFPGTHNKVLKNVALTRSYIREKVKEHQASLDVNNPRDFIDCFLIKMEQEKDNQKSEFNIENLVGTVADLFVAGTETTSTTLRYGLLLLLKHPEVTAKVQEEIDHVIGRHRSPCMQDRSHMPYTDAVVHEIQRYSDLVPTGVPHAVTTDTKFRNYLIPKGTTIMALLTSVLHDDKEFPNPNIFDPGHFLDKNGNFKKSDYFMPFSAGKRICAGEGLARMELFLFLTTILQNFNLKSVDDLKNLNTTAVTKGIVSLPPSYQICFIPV
# assaySetup: recombinant enzyme
testReadout: IC50 (µM)
Answer with a number only, understood to be in µM.

(Q) Using the record for `COCC[C@H]1CC2CN3CCc4c([nH]c5ccccc45)[C@](C(=O)OC)(C2)[C@H]13` , state its measured IC50.
(A) 19

* * *

# protocolDetails: Phase 1 first-in-human study, pharmacokinetics in plasma
# assaySetup: both, human, plasma, po, 20 mg
Property: Tmax; scope: individual compounds
Response body: numeric value in h, unit text excluded.

# example entries with known answers
{"compound": "COCCC1CC2CN3C=Cc4c([nH]c5ccccc45)C(C(=O)OC)(C2)C13 (stereo not drawn) [M4]", "unit": "h", "Tmax": 1.4}
{"compound": "COC(=O)C12CC3CC(CC(=O)O)C1N(CCc1c2[nH]c2ccccc12)C3 (stereo not drawn) [M5]", "unit": "h", "Tmax": 0.8}

Read the next record carefully.
(Q) For COC(=O)C12CC3CC(CCO)C1N(C=Cc1c2[nH]c2ccccc12)C3 (stereo not drawn) [M2] , write its Tmax.
(A) 1.4

* * *

# protocolDetails: Phase 1 first-in-human study, pharmacokinetics in plasma
# assaySetup: both, human, plasma, po, 4 mg
testReadout: AUC (ng·h/mL)
Unit ng·h/mL implied. Number only.

// worked examples, AUC included
{"compound": "COC(=O)C12CC3CC(CCO)C1N(C=Cc1c2[nH]c2ccccc12)C3 (stereo not drawn)", "AUC (ng·h/mL)": 391}
{"compound": "COCCC1CC2CN3C=Cc4c([nH]c5ccccc45)C(C(=O)OC)(C2)C13 (stereo not drawn)", "AUC (ng·h/mL)": 1650}

Turning now to a further compound:
(Q) Find the measured AUC of COC(=O)C12CC3CC(CC(=O)O)C1N(CCc1c2[nH]c2ccccc12)C3 (stereo not drawn) and report it.
(A) 163

* * *

# protocolDetails: Phase 1 first-in-human study, pharmacokinetics in plasma
# assaySetup: cohort B, 4 mg PO at 0 and +10 hours
The entries below come with measured Half-Life, Min values attached.
Give just the numeric value; h need not be written.

// solved cases for Half-Life, Min follow
{"compound": "COCC[C@H]1CC2CN3CCc4c([nH]c5ccccc45)[C@](C(=O)OC)(C2)[C@H]13", "testReadout": "Half-Life, Min", "testValue": 3.0}
{"compound": "COC(=O)C12CC3CC(CC(=O)O)C1N(CCc1c2[nH]c2ccccc12)C3 (stereo not shown)", "testReadout": "Half-Life, Min", "testValue": 19.8}
{"compound": "COC(=O)C12CC3CC(CCO)C1N(C=Cc1c2[nH]c2ccccc12)C3 (stereo not shown)", "testReadout": "Half-Life, Min", "testValue": 18.7}

Kindly review the next compound as well.
(Q) Using the record for COCCC1CC2CN3C=Cc4c([nH]c5ccccc45)C(C(=O)OC)(C2)C13 (stereo not shown) , state its measured Half-Life, Min.
(A) 13.2

* * *

# protocolDetails: Phase 1 first-in-human study, pharmacokinetics in plasma
# assaySetup: cohort A, 20 mg PO single dose
testReadout: AUCall, Min (ng·h/mL)
Reply numerically in ng·h/mL, unit not repeated.

Worked examples, 3 molecules total:
{"molecule": "COCC[C@H]1CC2CN3CCc4c([nH]c5ccccc45)[C@](C(=O)OC)(C2)[C@H]13 [18-MC, 18-methoxycoronaridine]", "AUCall, Min [ng·h/mL]": 241}
{"molecule": "COCCC1CC2CN3C=Cc4c([nH]c5ccccc45)C(C(=O)OC)(C2)C13 (stereo not shown) [M4]", "AUCall, Min [ng·h/mL]": 1897}
{"molecule": "COC(=O)C12CC3CC(CC(=O)O)C1N(CCc1c2[nH]c2ccccc12)C3 (stereo not shown) [M5]", "AUCall, Min [ng·h/mL]": 105}

Let us move to another entry and its AUCall, Min.
(Q) Look up and state reported AUCall, Min for COC(=O)C12CC3CC(CCO)C1N(C=Cc1c2[nH]c2ccccc12)C3 (stereo not shown) [M2]
(A) 504
